Hello, the source for this data is the Kinase Knowledgebase extract (Sharma et al. 2016), in case you need it.

study.target: PIK3CA (human) (UniProt P42336)
Sequence (P42336 whole entry, looked up): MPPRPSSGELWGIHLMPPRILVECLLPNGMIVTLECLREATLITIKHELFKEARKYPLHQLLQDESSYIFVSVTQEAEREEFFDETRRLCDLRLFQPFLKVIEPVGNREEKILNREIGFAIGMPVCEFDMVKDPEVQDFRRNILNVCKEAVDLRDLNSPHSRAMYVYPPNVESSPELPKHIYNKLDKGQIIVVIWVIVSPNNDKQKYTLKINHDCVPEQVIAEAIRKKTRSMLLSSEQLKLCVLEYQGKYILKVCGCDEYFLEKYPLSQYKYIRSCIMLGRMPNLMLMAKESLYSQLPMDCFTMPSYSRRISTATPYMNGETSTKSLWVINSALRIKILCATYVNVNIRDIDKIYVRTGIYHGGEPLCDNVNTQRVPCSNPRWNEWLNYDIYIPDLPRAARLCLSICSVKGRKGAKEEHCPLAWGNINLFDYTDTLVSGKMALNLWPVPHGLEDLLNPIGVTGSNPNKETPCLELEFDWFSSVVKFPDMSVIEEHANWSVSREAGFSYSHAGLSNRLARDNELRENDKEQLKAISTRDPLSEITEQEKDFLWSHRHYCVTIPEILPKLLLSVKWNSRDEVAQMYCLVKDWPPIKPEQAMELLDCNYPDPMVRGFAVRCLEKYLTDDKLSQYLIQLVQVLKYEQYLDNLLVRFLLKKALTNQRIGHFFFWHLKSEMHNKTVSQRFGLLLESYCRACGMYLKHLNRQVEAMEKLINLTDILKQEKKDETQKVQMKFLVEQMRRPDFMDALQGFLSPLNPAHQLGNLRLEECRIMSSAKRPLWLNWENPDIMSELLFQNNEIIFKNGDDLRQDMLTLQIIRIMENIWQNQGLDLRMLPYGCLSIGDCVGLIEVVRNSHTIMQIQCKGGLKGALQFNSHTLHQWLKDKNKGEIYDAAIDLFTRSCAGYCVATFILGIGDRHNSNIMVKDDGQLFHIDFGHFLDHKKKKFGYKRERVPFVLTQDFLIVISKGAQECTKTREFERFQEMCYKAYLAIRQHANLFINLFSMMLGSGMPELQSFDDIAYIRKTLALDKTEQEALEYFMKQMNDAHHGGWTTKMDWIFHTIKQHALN
assay.remarks: Inhibition of A2780 Cell Proliferation
pEC50: −log10 of the molar value.
recorded.metric: pEC50

Exercise: Need pEC50, item CC(=O)Nc1cn2nc(-c3cnc(N)c(N4CCOCC4)n3)ccc2n1
Key: > 4.60

Exercise: What measured pEC50 goes with Nc1ccc(-c2ccc3nc(NC(=O)OCCN4CCOCC4)sc3c2)cn1 ?
Key: > 4.60

Exercise: Any idea what pEC50 was measured for Nc1ncc(-c2ccc3nc(NC(=O)N4CCCC4c4ccccn4)cn3c2)cc1C(F)(F)F (stereo not given) ?
Key: > 4.60

Exercise: Could you tell me which pEC50 is on file for CCC(=O)Nc1cn2nc(-c3cnc(N)c(C(F)(F)F)c3)ccc2n1 ?
Key: > 6.00

Exercise: Would you kindly share the measured pEC50 for Nc1ncc(-c2ccc3nc(NC(=O)C4CNC4)cn3c2)cc1C(F)(F)F ?
Key: > 5.00
